Origin of the recorded values: ChEMBL document CHEMBL2321666

tested on: MDA-MB-231; test: Cytotoxicity against human MDA-MB-231 cells assessed as colony formation at 10 uM after 2 weeks relative to control; type: cell-based; settings: mda-mb-231, 336 h
Assignment: determine reported Activity for the given compounds.
Numbers only, in %.

query_smiles: COc1ccc(C(=O)N(C)c2nc(-c3ccccc3)cs2)cc1OC
Activity, %: 97.1

query_smiles: Cn1c(-c2ccccc2)cs/c1=N/C(=O)c1cccs1
Activity, %: 85

query_smiles: CCn1c(-c2ccccc2)cs/c1=N/C(=O)c1cccs1
Activity, %: 97.7

query_smiles: Cn1c(-c2ccccc2)cs/c1=N/C(=O)c1ccc(Br)cc1
Activity, %: 63.8

query_smiles: Cc1ccc(-c2csc(N(C)C(=O)c3cccs3)n2)c(C)c1
Activity, %: 97.7

For every item below, please supply its Activity.
1. Cn1c(-c2ccccc2)cs/c1=N/C(=O)c1ccco1
2. COc1cc(OC)c(-c2cs/c(=N/C(=O)c3ccccc3)n2C)c(OC)c1
3. O=C(Nc1nc(-c2ccccc2)cs1)c1ccc(Cl)cc1
4. O=C(Nc1nc(-c2ccccc2)cs1)c1ccc(Br)cc1
5. CN(C(=O)c1ccc(Br)cc1)c1nc(-c2ccccc2)cs1

Response line:
1. 107.3
2. 94
3. 95
4. 98.6
5. 107.7

For every item below, please supply its Activity.
1. CCN(C(=O)c1ccco1)c1nc(-c2ccccc2)cs1
2. Nc1nc(-c2ccccc2)cs1
3. COc1ccc(C(=O)/N=c2/scc(-c3ccccc3)n2C)cc1OC
4. O=C(Nc1nc(-c2ccccc2)cs1)c1cccs1
5. Cn1c(-c2ccccc2)cs/c1=N/C(=O)c1ccc(Cl)cc1
6. Cc1ccc(-c2csc(NC(=O)c3cccs3)n2)c(C)c1
7. Cc1ccc(-c2csc(N)n2)c(C)c1

Response line:
1. 96.5
2. 103.6
3. 40.9
4. 85.9
5. 98.2
6. 67.5
7. 110.9
